Target: Blon_0883 (BiGFL-BP) (Bifidobacterium longum, UniProt A0AAX1LHV4)
Construct: gene msmE_4; mature peptide, amino acids 24-460, signal peptide removed; N-terminal TEV-cleavable His tag cut; E. coli BL21(DE3)
Set-up: SPR (Biacore T100), immobilized Blon_0883 on CM5 chip, 25 °C, pH 6.5; kinetic and steady-state fits
Settings: SPR steady-state fit; binder
valueKind: pKd
The meaning of pKd here: minus log10 of the concentration in molar units.

compound	tgt	pKd
CC(=O)N[C@H]1C(O)O[C@H](CO)[C@@H](O)[C@@H]1O[C@@H]1O[C@H](CO)[C@H](O)[C@H](O)[C@H]1O (some centres unmarked)	Blon_0883 (BiGFL-BP) (Bifidobacterium longum, UniProt A0AAX1LHV4)	7.49

Shift focus to the following entry.
// CC(=O)N[C@H]1C(O)O[C@H](CO)[C@H](O)[C@@H]1O[C@@H]1O[C@H](CO)[C@H](O)[C@H](O)[C@H]1O (some centres unmarked) : pKd value = 7.21

----------
Target: Blon_0883 (BiGFL-BP) (Bifidobacterium longum)
Construct: gene msmE_4; mature peptide, amino acids 24-460, signal peptide removed; N-terminal TEV-cleavable His tag cut; E. coli BL21(DE3)
Sequence (A0AAX1LHV4 24-445): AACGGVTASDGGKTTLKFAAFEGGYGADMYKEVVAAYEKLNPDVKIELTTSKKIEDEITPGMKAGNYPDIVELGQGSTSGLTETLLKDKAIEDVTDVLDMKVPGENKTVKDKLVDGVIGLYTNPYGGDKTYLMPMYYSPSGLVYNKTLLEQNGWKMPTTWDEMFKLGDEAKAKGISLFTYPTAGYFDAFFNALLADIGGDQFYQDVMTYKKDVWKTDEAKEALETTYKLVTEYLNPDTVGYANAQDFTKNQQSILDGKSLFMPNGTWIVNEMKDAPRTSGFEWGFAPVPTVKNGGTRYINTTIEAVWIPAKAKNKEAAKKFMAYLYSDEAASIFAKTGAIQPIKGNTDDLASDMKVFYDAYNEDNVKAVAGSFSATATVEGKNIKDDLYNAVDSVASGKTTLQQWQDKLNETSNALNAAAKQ
Experiment: biochemical
Parameters: SPR (Biacore T100), immobilized Blon_0883 on CM5 chip, 25 °C, pH 6.5; kinetic and steady-state fits
Details: SPR kinetic global fit
valueKind: koff (s⁻¹)
Kindly answer with a numeric value in s⁻¹, unit omitted.

compound	unitTag	koff
CC(=O)N[C@H]1C(O)O[C@H](CO)[C@@H](O[C@@H]2O[C@@H](C)[C@@H](O)[C@@H](O)[C@@H]2O)[C@@H]1O[C@@H]1O[C@H](CO)[C@H](O)[C@H](O)[C@H]1O (stereo partly shown) [Le^a]	s⁻¹	0.14

Summary for this compound, CC(=O)N[C@H]1C(O)O[C@H](CO)[C@@H](O)[C@@H]1O[C@@H]1O[C@H](CO)[C@H](O)[C@H](O)[C@H]1O[C@@H]1O[C@@H](C)[C@@H](O)[C@@H](O)[C@@H]1O (stereo partly shown) [H1] : koff is 0.17

Record summary for CC(=O)N[C@H]1C(O)O[C@H](CO)[C@@H](O)[C@@H]1O[C@@H]1O[C@H](CO)[C@H](O)[C@H](O)[C@H]1O (stereo partly shown) [LNB, Galβ1,3GlcNAc] : reported koff = 0.16

Summary for this compound, CC(=O)N[C@H]1C(O)O[C@H](CO)[C@H](O)[C@@H]1O[C@@H]1O[C@H](CO)[C@H](O)[C@H](O)[C@H]1O (stereo partly shown) [GNB, Galβ1,3GalNAc] : koff is 0.04

----------
The compounds listed here are annotated with their Kd.
Molecular target: Blon_0883 (BiGFL-BP) (Bifidobacterium longum)
Construct: gene msmE_4; mature peptide, amino acids 24-460, signal peptide removed; N-terminal TEV-cleavable His tag cut; E. coli BL21(DE3)
Assay: surface plasmon resonance, steady state
Format: binding
Conditions: 25 °C, pH 6.5, 10 mM sodium phosphate, 150 mM NaCl, 0.005% P20; protein amine-coupled to CM5 chip
Give just the number in nM; leave the unit off.

compound	Kd / nM
CC(=O)N[C@H]1C(O)O[C@H](CO)[C@@H](O[C@@H]2O[C@@H](C)[C@@H](O)[C@@H](O)[C@@H]2O)[C@@H]1O[C@@H]1O[C@H](CO)[C@H](O)[C@H](O)[C@H]1O (some centres unmarked) [Le^a]	146

Lab note: measured Kd of CC(=O)N[C@H]1C(O)O[C@H](CO)[C@@H](O)[C@@H]1O[C@@H]1O[C@H](CO)[C@H](O)[C@H](O)[C@H]1O[C@@H]1O[C@@H](C)[C@@H](O)[C@@H](O)[C@@H]1O (some centres unmarked) [H1] was 158

----------
Below is a list of entries, each paired with its recorded Kd value.
Target: Blon_0883 (BiGFL-BP) (Bifidobacterium longum, UniProt A0AAX1LHV4)
Construct: gene msmE_4; mature peptide, amino acids 24-460, signal peptide removed; N-terminal TEV-cleavable His tag cut; E. coli BL21(DE3)
Sequence (A0AAX1LHV4 24-445): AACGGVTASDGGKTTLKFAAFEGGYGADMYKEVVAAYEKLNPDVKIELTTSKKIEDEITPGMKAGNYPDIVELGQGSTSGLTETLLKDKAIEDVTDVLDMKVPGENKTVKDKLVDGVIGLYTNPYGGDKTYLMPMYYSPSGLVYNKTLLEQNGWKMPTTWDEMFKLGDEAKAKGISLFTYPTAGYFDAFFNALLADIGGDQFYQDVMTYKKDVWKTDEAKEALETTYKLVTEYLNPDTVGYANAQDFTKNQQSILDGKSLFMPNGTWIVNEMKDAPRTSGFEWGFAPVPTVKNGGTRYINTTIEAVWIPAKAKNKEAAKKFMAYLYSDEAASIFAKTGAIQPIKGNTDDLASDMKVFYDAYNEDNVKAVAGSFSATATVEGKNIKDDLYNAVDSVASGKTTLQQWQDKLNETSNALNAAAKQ
Design: SPR (Biacore T100), immobilized Blon_0883 on CM5 chip, 25 °C, pH 6.5; kinetic and steady-state fits
Details: SPR kinetic global fit; binder; read-out: Kd Kinetics
A number alone suffices; assume nM.

Use the examples below as a reference point.
compound	unitTag	Kd
CC(=O)N[C@H]1C(O)O[C@H](CO)[C@@H](O[C@@H]2O[C@@H](C)[C@@H](O)[C@@H](O)[C@@H]2O)[C@@H]1O[C@@H]1O[C@H](CO)[C@H](O)[C@H](O)[C@H]1O (stereo partly shown) [Le^a]	nM	49
CC(=O)N[C@H]1C(O)O[C@H](CO)[C@@H](O)[C@@H]1O[C@@H]1O[C@H](CO)[C@H](O)[C@H](O)[C@H]1O (stereo partly shown) [LNB, Galβ1,3GlcNAc]	nM	11
CC(=O)N[C@H]1C(O)O[C@H](CO)[C@H](O)[C@@H]1O[C@@H]1O[C@H](CO)[C@H](O)[C@H](O)[C@H]1O (stereo partly shown) [GNB, Galβ1,3GalNAc]	nM	42

Quick note, Kd for CC(=O)N[C@H]1C(O)O[C@H](CO)[C@@H](O)[C@@H]1O[C@@H]1O[C@H](CO)[C@H](O)[C@H](O)[C@H]1O[C@@H]1O[C@@H](C)[C@@H](O)[C@@H](O)[C@@H]1O (stereo partly shown) [H1] landed at 37

----------
Target: Blon_0883 (BiGFL-BP) (Bifidobacterium longum)
Construct: gene msmE_4; mature peptide, amino acids 24-460, signal peptide removed; N-terminal TEV-cleavable His tag cut; E. coli BL21(DE3)
Test: biochemical
Parameters: SPR (Biacore T100), immobilized Blon_0883 on CM5 chip, 25 °C, pH 6.5; kinetic and steady-state fits
Details: SPR kinetic global fit; read-out: kon (×10^6 M^-1s^-1)
Entries and their kon
Answer in M⁻¹ s⁻¹, number only, no unit symbol.

The cases that follow already have their kon on record.
compound	unitTag	kon
CC(=O)N[C@H]1C(O)O[C@H](CO)[C@H](O)[C@@H]1O[C@@H]1O[C@H](CO)[C@H](O)[C@H](O)[C@H]1O (stereo partly shown) [GNB, Galβ1,3GalNAc]	M⁻¹ s⁻¹	850000
CC(=O)N[C@H]1C(O)O[C@H](CO)[C@@H](O[C@@H]2O[C@@H](C)[C@@H](O)[C@@H](O)[C@@H]2O)[C@@H]1O[C@@H]1O[C@H](CO)[C@H](O)[C@H](O)[C@H]1O (stereo partly shown) [Le^a]	M⁻¹ s⁻¹	3e+06
CC(=O)N[C@H]1C(O)O[C@H](CO)[C@@H](O)[C@@H]1O[C@@H]1O[C@H](CO)[C@H](O)[C@H](O)[C@H]1O (stereo partly shown) [LNB, Galβ1,3GlcNAc]	M⁻¹ s⁻¹	1.46e+07

Moving on to another compound below.
Record CC(=O)N[C@H]1C(O)O[C@H](CO)[C@@H](O)[C@@H]1O[C@@H]1O[C@H](CO)[C@H](O)[C@H](O)[C@H]1O[C@@H]1O[C@@H](C)[C@@H](O)[C@@H](O)[C@@H]1O (stereo partly shown) [H1] has Blon_0883 (BiGFL-BP) (Bifidobacterium longum) kon equal to 4.8e+06
